- target: Replicase polyprotein 1ab (Severe acute respiratory syndrome coronavirus 2, UniProt P0DTD1)
pIC50: −log10 of the molar value.
Outcome: 1 (yes) for pIC50 of at least 7; 0 (no) for anything lower.

Please review the following examples before continuing.
>  <compound>
CN1CCN(C(c2ccc(C(F)(F)F)cc2)c2ccc3cccnc3c2O)CC1 (configuration not stated)

>  <qualitative label>
0 (no)

$$$$
>  <compound>
N#CSc1cc(SC#N)c(N)nc1N

>  <qualitative label>
0 (no)

$$$$

Evaluate "COC(=O)CC[C@H](NC(=O)[C@H](CC(=O)OC)NC(=O)OCc1ccccc1)C(=O)N[C@H](C(=O)N[C@@H](CC(=O)OC)C(=O)CF)C(C)C" : pIC50 at minimum 7?
1 (yes)

====

IC50 listing for selected compounds.
- target: Replicase polyprotein 1ab (Severe acute respiratory syndrome coronavirus 2, UniProt P0DTD1)
Give the value in µM but do not write µM after it.

>  <structure string>
O=C1C=Cc2cc(Br)ccc2C1=O

>  <endpoint name>
IC50

>  <measurement>
0.09

$$$$
>  <structure string>
Cn1sc(=O)n(Cc2ccccc2)c1=O

>  <endpoint name>
IC50

>  <measurement>
0.14

$$$$
>  <structure string>
Cc1c(-c2cnccn2)ssc1=S

>  <endpoint name>
IC50

>  <measurement>
0.11

$$$$

We now examine a further compound.
Consider the compound "CCOC(=O)Cc1ccc(-c2ccccc2)cc1" and give its recorded IC50.
0.08
